# TARGET OF ASSAY: a4(Q878R)b7 (human) (UniProt P13612)
# Sequence (P13612 34-1032, chain 1 of 2): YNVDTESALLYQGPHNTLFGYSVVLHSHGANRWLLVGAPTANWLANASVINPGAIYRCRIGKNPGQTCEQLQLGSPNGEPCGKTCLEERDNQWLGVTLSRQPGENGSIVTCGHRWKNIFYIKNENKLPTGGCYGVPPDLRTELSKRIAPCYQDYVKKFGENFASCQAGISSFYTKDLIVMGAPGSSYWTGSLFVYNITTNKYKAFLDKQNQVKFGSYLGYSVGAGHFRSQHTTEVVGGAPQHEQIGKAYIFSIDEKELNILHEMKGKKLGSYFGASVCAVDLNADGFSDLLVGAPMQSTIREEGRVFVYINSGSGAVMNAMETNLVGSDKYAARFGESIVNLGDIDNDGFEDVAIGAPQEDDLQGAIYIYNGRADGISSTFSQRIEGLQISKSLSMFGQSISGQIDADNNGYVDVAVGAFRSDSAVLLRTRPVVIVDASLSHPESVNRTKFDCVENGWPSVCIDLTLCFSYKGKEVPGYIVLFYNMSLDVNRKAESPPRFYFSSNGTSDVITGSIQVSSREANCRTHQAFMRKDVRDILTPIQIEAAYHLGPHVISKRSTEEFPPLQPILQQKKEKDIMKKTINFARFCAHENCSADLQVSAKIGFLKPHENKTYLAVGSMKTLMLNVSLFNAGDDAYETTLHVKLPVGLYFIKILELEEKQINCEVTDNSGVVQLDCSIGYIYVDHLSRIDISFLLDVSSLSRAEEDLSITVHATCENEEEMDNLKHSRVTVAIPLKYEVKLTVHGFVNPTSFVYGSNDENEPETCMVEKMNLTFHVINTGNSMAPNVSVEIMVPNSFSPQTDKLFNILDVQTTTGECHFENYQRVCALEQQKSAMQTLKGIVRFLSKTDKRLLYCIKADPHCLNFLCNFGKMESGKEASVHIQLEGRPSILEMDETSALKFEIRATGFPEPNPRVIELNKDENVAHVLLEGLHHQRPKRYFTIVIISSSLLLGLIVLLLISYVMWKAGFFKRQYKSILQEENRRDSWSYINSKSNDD
# Sequence (P26010 20-798, chain 2 of 2, further chain): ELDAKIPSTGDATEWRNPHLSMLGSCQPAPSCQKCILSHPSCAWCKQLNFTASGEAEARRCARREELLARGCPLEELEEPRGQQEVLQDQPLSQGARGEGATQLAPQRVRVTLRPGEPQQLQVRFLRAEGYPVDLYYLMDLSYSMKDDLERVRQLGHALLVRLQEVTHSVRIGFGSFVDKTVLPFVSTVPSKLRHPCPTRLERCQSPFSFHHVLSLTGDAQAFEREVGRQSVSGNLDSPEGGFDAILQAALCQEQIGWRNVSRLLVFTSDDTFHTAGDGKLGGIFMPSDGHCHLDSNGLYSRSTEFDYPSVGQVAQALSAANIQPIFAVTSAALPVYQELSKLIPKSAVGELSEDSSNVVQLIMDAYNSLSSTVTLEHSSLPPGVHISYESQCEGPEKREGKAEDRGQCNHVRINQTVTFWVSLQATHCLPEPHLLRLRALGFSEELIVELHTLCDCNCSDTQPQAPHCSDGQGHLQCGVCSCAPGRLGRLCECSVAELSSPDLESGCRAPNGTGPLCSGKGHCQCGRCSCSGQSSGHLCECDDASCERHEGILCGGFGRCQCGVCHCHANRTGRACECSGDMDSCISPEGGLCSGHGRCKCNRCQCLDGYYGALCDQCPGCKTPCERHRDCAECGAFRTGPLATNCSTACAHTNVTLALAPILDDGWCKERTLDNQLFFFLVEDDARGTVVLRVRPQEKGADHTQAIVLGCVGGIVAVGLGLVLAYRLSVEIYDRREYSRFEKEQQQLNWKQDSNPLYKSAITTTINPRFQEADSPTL
# PROCEDURE SUMMARY: FACS on transfected 293 cells, 1 microG/ml, PE anti-human IgG
Assign fluorescence staining intensity (geometric mean) to each entry below.
Format: numeric value only, no unit, no commentary.

Q) Sample 17C8 (antibody, V domains shown, Fully human monoclonal from XenoMouse (human IgG2 or IgG4); kappa light chain; also called 17C8K; 17C8H) VH: QVQLVESGGGLVKPGGSLRLSCAASGFTFSDYYMSWIRQAPGKGLEWLSYISNSGSAMYYADSVKGRFTISRDNARNSLYLQMNSLRAEDTAVYYCAREYSSGWFFFESWGQGTLVTVSS VL: EIVMTQSPATLSVSPGERATLSCRASQSVSSNLVWYQQKPGQAPRLLIYGASTRATGIPARFSGSGSGTDFTLTISSLQSEDFAVYYCQQYDDWPPLTFGGGTTVEIK — what was its fluorescence staining intensity (geometric mean)?
A) 51

Q) Sample 25C9 (antibody, V domains shown, Fully human monoclonal from XenoMouse (human IgG2 or IgG4); kappa light chain; also called 25C9k; 25C9K) VH: QVQLVESGGGLVKPGGSLRLSCAASGFTFNDYYMSWIRQAPGKGLEWVSYISSSGSAIHYADSVKGRFTISRDNAKNSLYLQMNSLRAEDTAVYYCAREYSSGWAYFDYWGQGTLVTVSS VL: DIQMTQSPSSVSASVGDRVTITCRASQDISSWLAWYQRKPGKAPKVLIYSASSLQSGVPSRFSGSGSGTDFTLTISSLQPEDFATYYCQQADSFPWTFGQGTKVEIK — what was its fluorescence staining intensity (geometric mean)?
A) 51

Q) Sample 1A10 (antibody, V domains shown, Fully human monoclonal from XenoMouse XG2kl or XG4kl mice (human IgG2 or IgG4); kappa light chain; also called 1A10K; 1A10H) VH: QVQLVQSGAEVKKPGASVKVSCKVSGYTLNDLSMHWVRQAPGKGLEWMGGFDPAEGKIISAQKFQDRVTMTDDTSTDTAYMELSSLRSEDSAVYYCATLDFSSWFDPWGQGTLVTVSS VL: DIQMTQSPSSVSASVGDRVTITCRASQGVSSWLAWYQQKPGMAPKLLIYAASILQSGVPSRFSGSGSGTDFTLTISSLQPEDFATYYCQQANSFPWTFGQGTKVEIK — what was its fluorescence staining intensity (geometric mean)?
A) 70
